# protocol summary: Concentration in blood of male beagle dogs
# Assay type: in vivo
# run parameters: dog, plasma, 30 mg/kg, 30 mg/kg water suspension, 6 hr.
experimental readout: concentration at 6 h (ng/mL)
Respond numerically; units are ng/mL and should not be typed.

Consider the worked cases shown below.
compound | concentration at 6 h, ng/mL
CN(C(=O)CCCOc1cccc2c1CCC(=O)N2)C1CCCCC1 [compound 23] | 140
CCN(C(=O)CCCOc1ccc2[nH]c(=O)ccc2c1)c1ccccc1 [compound 20] | 80
O=C1CCc2cc(OCCCC(=O)N(C3CCCCC3)C3CCCCC3)ccc2N1 [compound 18] | 170
CN(C(=O)CCCOc1ccc2[nH]c(=O)ccc2c1)C1CCCCC1 [compound 16] | 110

For the next question, use this compound.
Prompt line: Assign concentration at 6 h to the following record: CC1CCCCC1N(C)C(=O)CCCOc1ccc2[nH]c(=O)ccc2c1 (centres unmarked) [compound 1]
Response line: 130

Attribution: patent US4298739A
